assayProcedure: Inhibition of Severe acute respiratory syndrome coronavirus 2 MPro incubated for 24 hrs by plaque assay
measuredProperty: pEC50
pEC50 here: minus log base 10 of the concentration, concentration in moles per litre.

Q) Provide measured pEC50 value, entry: O=C[C@H](C[C@@H]1CCNC1=O)NC(=O)[C@H](Cc1cccc(F)c1)NC(=O)c1cc2ccccc2[nH]1
A) 6.14
